Below, each entry is listed with its recorded Cytotoxicity activity (%).
system: Vero cells; conditions: Table S1, M^pro inhibitors; same inhibitor concentration (10 µg/mL)
Numbers only here, please. The scale is %.

Reported Cytotoxicity activity (%) for COc1ccc(-n2c(S)nnc2CNc2ccc(C)cc2)cc1 was 5.87

---

tested on: Vero cells; settings: Table S2, PL^pro inhibitors; same inhibitor concentration
Assay Readout: Cytotoxicity activity (%)
Field: numeric (%). Do not append units.

>>> value_observed("CCC(C(=O)NCc1ccco1)n1c(Cc2c(Cl)cccc2Cl)nc2ccccc21 (centres unmarked)")
-22.39
>>> value_observed("COc1ccc(-n2c(CNC(=O)COc3ccc(Cl)cc3Cl)n[nH]c2=S)cc1")
-7.31
>>> value_observed("COc1ccc(-n2c(S)nnc2CNC(=O)c2cc(OC)c(OC)c(OC)c2)cc1")
-9.42
>>> value_observed("O=C(NCc1n[nH]c(=S)n1-c1ccc(Br)cc1)c1ccc(Cl)cc1Cl")
-8.62
>>> value_observed("O=c1sc2ccccc2n1Cc1n[nH]c(=S)n1-c1ccccc1")
-4.63
>>> value_observed("O=C(COc1ccc(Cl)cc1)NCc1n[nH]c(=S)n1-c1ccc(Br)cc1")
-4.08
>>> value_observed("CCOc1cc(C(=O)NCc2n[nH]c(=S)n2-c2ccc(Br)cc2)cc(OCC)c1OCC")
-7.5

Reported Cytotoxicity activity (%) for CC(C(=O)NCc1ccco1)n1c(Cc2c(Cl)cccc2Cl)nc2ccccc21 (centres unmarked) was -14.28
